# testedOn: CBL-B (Homo sapiens)
# Construct: GST
# Sequence (Q13191 whole entry): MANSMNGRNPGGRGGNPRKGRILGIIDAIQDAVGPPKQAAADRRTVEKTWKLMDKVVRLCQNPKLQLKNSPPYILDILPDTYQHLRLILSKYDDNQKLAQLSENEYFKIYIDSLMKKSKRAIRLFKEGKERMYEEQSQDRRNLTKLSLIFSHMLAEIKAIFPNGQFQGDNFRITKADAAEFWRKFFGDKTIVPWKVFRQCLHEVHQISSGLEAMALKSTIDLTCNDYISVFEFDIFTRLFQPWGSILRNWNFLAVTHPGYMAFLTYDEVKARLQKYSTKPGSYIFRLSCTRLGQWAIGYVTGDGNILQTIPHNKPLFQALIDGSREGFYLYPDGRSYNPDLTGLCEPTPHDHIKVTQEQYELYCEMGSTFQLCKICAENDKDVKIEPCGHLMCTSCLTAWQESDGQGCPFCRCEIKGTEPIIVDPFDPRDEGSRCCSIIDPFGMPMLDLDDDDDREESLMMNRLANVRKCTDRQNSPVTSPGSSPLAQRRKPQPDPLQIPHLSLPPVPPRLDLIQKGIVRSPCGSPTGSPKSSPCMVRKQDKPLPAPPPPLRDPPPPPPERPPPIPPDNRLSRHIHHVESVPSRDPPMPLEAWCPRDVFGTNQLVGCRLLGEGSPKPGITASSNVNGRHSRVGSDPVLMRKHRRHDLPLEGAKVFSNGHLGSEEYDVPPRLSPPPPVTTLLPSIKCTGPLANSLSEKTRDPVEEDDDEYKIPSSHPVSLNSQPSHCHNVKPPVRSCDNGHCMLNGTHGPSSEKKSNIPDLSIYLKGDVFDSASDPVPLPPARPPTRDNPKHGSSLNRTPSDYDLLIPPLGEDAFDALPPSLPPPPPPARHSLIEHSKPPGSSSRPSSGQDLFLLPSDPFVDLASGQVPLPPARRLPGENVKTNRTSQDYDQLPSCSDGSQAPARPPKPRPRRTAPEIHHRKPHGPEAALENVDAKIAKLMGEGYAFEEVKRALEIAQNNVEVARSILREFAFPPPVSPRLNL
# test: CBL-B TR-FRET IC50 screening (E1/E2 ubiquitination, Biotin-Ubiquitin, Anti GST-Tb donor / Streptavidin-d2 acceptor)
# Format: biochemical
# measurementContext: CBL-B 10 nM final; 11-point titration from 100 uM; binned A-F; read-out: CBL-B TR-FRET activity IC50
assayEndpoint: IC50

Data request, read-out IC50, for CO[C@@H]1CCCN(Cc2cc(C(F)(F)F)c3cn(-c4cccc([C@H](c5nncn5C)C5CCC5)c4)c(=O)n3c2)CC1 (single isomer, unassigned)
< 100 nM

Field entry: Cn1cnnc1CC1(c2cccc(-n3cc4c(C(F)(F)F)cc(C5=CCNC5)cn4c3=O)c2)COC1
1000 to 3000 nM

Field entry: CC1CC(c2cccc(-n3cc4c(C(F)(F)F)cc(CN5CCO[C@H](C)C5)cn4c3=O)c2)(c2nncn2C)C1 (single isomer, unassigned)
< 100 nM

Field entry: CC(c1cc(C(F)(F)F)c2cn(-c3cccc(C4(Cc5nncn5C)COC4)c3)c(=O)n2c1)N1CCO[C@H](C)C1 (single isomer, unassigned) [Compound 156]
< 100 nM

Field entry: Cn1cnnc1CC1(c2cccc(-n3cc4c(C(F)(F)F)cc(CCC(=O)O)cn4c3=O)c2)COC1
301 to 1000 nM

Field entry: Cn1cnnc1CC1(c2cccc(-n3cc4c(C(F)(F)F)cc(CN5CC(F)C5)cn4c3=O)c2)COC1
< 100 nM

Field entry: CO[C@@H]1CCCCN(Cc2cc(C(F)(F)F)c3cn(-c4cccc([C@H](c5nncn5C)C5CCC5)c4)c(=O)n3c2)C1 (single isomer, unassigned)
< 100 nM

Field entry: Cc1sc(C#N)nc1[C@@H](c1cccc(-n2cc3c(C(F)(F)F)cc(CN4CCC[C@H](C)C4)cn3c2=O)c1)C1CCC1 (single isomer, unassigned)
> 10000 nM

Field entry: C[C@H]1CN(Cc2cc(C(F)(F)F)c3cn(-c4cccc([C@]5(Cc6nncn6C)C[C@H](C#N)C5)c4)c(=O)n3c2)CCC1(F)F (single isomer, unassigned)
< 100 nM

Field entry: CO[C@H]1CCCN(Cc2cc(C(F)(F)F)c3cn(-c4cccc([C@H](c5nncn5C)C5CCC5)c4)c(=O)n3c2)CC1 (single isomer, unassigned)
< 100 nM

Field entry: CN1CC(Cc2nncn2C)(c2cccc(-n3cc4c(C(F)(F)F)cccn4c3=O)c2)C1
> 10000 nM

Field entry: C[C@H]1CCCN(Cc2cc(C(F)(F)F)c3cn(-c4cccc([C@@H](c5nncn5C)C5CC(F)(F)C5)c4)c(=O)n3c2)C1 (single isomer, unassigned)
> 10000 nM

Field entry: Cn1cnnc1CC1(c2cccc(-n3cc4c(C(F)(F)F)cc(C#CCN5CCCC5)cn4c3=O)c2)COC1
100 to 300 nM

Field entry: C[C@@H]1CN(Cc2cc(C(F)(F)F)c3cn(-c4cccc(C5(c6nncn6C)CC(F)(F)C5)c4)c(=O)n3c2)CCO1
301 to 1000 nM

Field entry: Cn1cnnc1CC1(c2cccc(-n3cc4c(C(F)(F)F)cc(C5CCN(C(=O)OC(C)(C)C)C5)cn4c3=O)c2)COC1 (stereo not drawn)
301 to 1000 nM

Field entry: Cn1cnnc1CC1(c2cccc(-n3cc4c(C(F)(F)F)cc(F)cn4c3=O)c2)COC1
100 to 300 nM

Field entry: CC1CN(Cc2cc(C(F)(F)F)c3cn(-c4cccc([C@@H](c5nncn5C)C5CCC5)c4)c(=O)n3c2)CCC1(F)F (single isomer, unassigned) [Compound 170]
1000 to 3000 nM

Field entry: C[C@@H]1CN(Cc2cc(C(F)(F)F)c3cn(-c4cccc([C@@H](c5nncs5)C5CCC5)c4)c(=O)n3c2)CCO1
1000 to 3000 nM

Field entry: Cn1cnnc1[C@@H](c1cccc(-n2cc3c(C(F)(F)F)cc(CN4CCO[C@H](C(F)(F)F)C4)cn3c2=O)c1)C1CCC1
< 100 nM

Field entry: CO[C@H]1C[C@@](c2cccc(-n3cc4c(C(F)(F)F)cc(CN5CCC[C@H](C)C5)cn4c3=O)c2)(c2nncn2C)C1
< 100 nM

Field entry: C[C@H]1CCCN(Cc2cc(C(F)(F)F)c3cn(-c4cccc([C@H](c5nncn5C)[C@H]5C[C@H](CO)C5)c4)c(=O)n3c2)C1 (single isomer, unassigned)
301 to 1000 nM

Field entry: CC(=O)N1C2CCC1CN(Cc1cc(C(F)(F)F)c3cn(-c4cccc([C@H](c5nncn5C)C5CCC5)c4)c(=O)n3c1)C2
< 100 nM

Field entry: Cn1cnnc1[C@@H](c1cccc(-n2cc3c(C(F)(F)F)cc(CN4CC(F)(F)C4)cn3c2=O)c1)C1CCC1
< 100 nM

Field entry: CN1CCN(Cc2cc(C(F)(F)F)c3cn(-c4cccc([C@H](c5nncn5C)C5CCC5)c4)c(=O)n3c2)CC1=O
< 100 nM

====

Answer each item with its documented IC50.
# testedOn: CBL-B (Homo sapiens)
# Construct: GST
# test: CBL-B TR-FRET IC50 screening (E1/E2 ubiquitination, Biotin-Ubiquitin, Anti GST-Tb donor / Streptavidin-d2 acceptor)
# Type: biochemical
# measurementContext: second part of Table 2 (head 'Patent Cmpd No / Updated Activity'); same CBL-B TR-FRET IC50 bins A-F; read-out: Updated Activity

Data request, read-out IC50, for Cn1cnnc1[C@@H](c1cccc(-n2cc3c(C(F)(F)F)cc(CN4CCC[C@](C)(O)C4)cn3c2=O)c1)C1CCC1 [Compound 568]
< 100 nM

Field entry: CO[C@H]1C[C@@](c2cccc(-n3cc4c(C(F)(F)F)cc([C@@H](C)N5CCC(F)CC5)cn4c3=O)c2)(c2nncn2C)C1 (single isomer, unassigned) [Compound 602]
301 to 1000 nM

Field entry: COC(=O)CN(C)Cc1cc(C(F)(F)F)c2cn(-c3cccc([C@H](c4nncn4C)C4CCC4)c3)c(=O)n2c1 [Compound 521]
< 100 nM

Field entry: [2H]C([2H])(c1cc(C(F)(F)F)c2cn(-c3cccc([C@H](c4nncn4C)C4CCC4)c3)c(=O)n2c1)N1CCC[C@@H](C(F)(F)F)C1 [Compound 597_P2]
< 100 nM

Field entry: Cn1cnnc1[C@@H](c1cccc(-n2cc3c(C(F)(F)F)cc(CN4CCNS4(=O)=O)cn3c2=O)c1)C1CCC1 [Compound 542]
< 100 nM

Field entry: CO[C@]1(C)C[C@](c2cccc(-n3cc4c(C(F)(F)F)cc(CN5CCC[C@H](C)C5)cn4c3=O)c2)(c2nncn2C)C1 (single isomer, unassigned) [Compound 439]
100 to 300 nM

====

# testedOn: CBL-B (Homo sapiens)
# Construct: GST
# test: CBL-B TR-FRET IC50 screening (E1/E2 ubiquitination, Biotin-Ubiquitin, Anti GST-Tb donor / Streptavidin-d2 acceptor)
# Assay type: biochemical
# measurementContext: CBL-B 10 nM final; 11-point titration from 100 uM; binned A-F; read-out: CBL-B TR-FRET activity IC50
Answer each item with its documented IC50.

Data request, read-out IC50, for Cn1cnnc1CC1(c2cccc(-n3cc4c(C(F)(F)F)cccn4c3=O)c2)CN(C(=O)OC(C)(C)C)C1 [Compound 133]
> 10000 nM

Field entry: Cn1cnnc1N(c1cccc(-n2cc3c(C(F)(F)F)cccn3c2=O)c1)C1COC1 [Compound 211]
1000 to 3000 nM

Field entry: CC(c1cc(C(F)(F)F)c2cn(-c3cccc([C@@H](c4nncn4C)C4CCC4)c3)c(=O)n2c1)N1CCC[C@H](C)C1 (single isomer, unassigned) [Compound 192]
< 100 nM

Field entry: COC1CCN(Cc2cc(C(F)(F)F)c3cn(-c4cccc([C@@H](c5nncn5C)C5CCC5)c4)c(=O)n3c2)CC1 (single isomer, unassigned) [Compound 235]
1000 to 3000 nM

Field entry: Cn1cnnc1C(c1cccc(-n2cc3c(C(F)(F)F)cc(Br)cn3c2=O)c1)C1COC1 (centres unmarked) [Compound 127]
301 to 1000 nM

Field entry: C[C@H]1CCCN(Cc2cc(C(F)(F)F)c3cn(-c4cccc(N(c5nncn5C)C5CCC5)c4)c(=O)n3c2)C1 [Compound 260]
< 100 nM

Field entry: Cc1cc(-n2cc3c(C(F)(F)F)cc(Br)cn3c2=O)cc(C2(Cc3nncn3C)COC2)c1 [Compound 238]
1000 to 3000 nM

Field entry: Cn1cnnc1CC(c1ccccc1)c1cccc(-n2cc3c(C(F)(F)F)cccn3c2=O)c1 (centres unmarked) [Compound 148]
> 10000 nM

Field entry: Cn1cnnc1CSc1cccc(-n2cc3c(C(F)(F)F)cccn3c2=O)c1 [Compound 149]
> 10000 nM

Field entry: [2H]C([2H])([2H])n1cnnc1CC1(c2cccc(-n3cc4c(C(F)(F)F)cc([C@@H](C)N5CCC[C@H](C)C5)cn4c3=O)c2)COC1 [Compound 278_P2]
< 100 nM

Field entry: Cc1scnc1[C@@H](c1cccc(-n2cc3c(C(F)(F)F)cc(CN4CCC[C@H](C)C4)cn3c2=O)c1)C1CCC1 (single isomer, unassigned) [Compound 283]
> 10000 nM

Field entry: Cn1cnnc1[C@@H](c1cccc(-n2cc3c(C(F)(F)F)cc(CN4CCS(=O)(=O)CC4)cn3c2=O)c1)C1CCC1 [Compound 378]
< 100 nM

Field entry: CN(Cc1nncn1C)c1cccc(-n2cc3c(C(F)(F)F)cc(Br)cn3c2=O)c1 [Compound 132]
> 10000 nM

Field entry: Cn1cnnc1CC1(c2cccc(-n3cc4c(C(F)(F)F)cc(CN5CCCC[C@@H](O)C5)cn4c3=O)c2)COC1 [Compound 167]
< 100 nM
